Molecular target: UniProt P05177
Sequence (P05177 whole entry): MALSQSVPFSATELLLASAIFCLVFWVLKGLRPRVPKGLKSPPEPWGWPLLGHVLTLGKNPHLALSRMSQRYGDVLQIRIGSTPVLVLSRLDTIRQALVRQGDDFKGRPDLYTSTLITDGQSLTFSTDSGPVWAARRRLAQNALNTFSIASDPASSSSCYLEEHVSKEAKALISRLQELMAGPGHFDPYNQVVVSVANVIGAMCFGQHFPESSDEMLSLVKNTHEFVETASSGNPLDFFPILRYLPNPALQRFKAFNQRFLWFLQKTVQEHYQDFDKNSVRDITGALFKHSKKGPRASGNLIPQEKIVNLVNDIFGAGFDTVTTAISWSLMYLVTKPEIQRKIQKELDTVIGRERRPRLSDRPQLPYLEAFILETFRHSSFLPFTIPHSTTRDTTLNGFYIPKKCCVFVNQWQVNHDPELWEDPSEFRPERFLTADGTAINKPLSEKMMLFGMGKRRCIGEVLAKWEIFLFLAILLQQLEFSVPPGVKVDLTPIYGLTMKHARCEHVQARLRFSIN
pIC50: −log10 of the molar value.
Measured parameter: pIC50

These recorded examples may help you get a feel for the data.
* CC1(C)C(=O)N(c2cc(C(F)(F)F)cc(C(F)(F)F)c2)C(=S)N1Cc1ccc(S(N)(=O)=O)c(F)c1 | < 4.00
* CC(C)(C)c1ccc(N2C(=O)C(C)(C)N(Cc3ccc(S(N)(=O)=O)c(F)c3)C2=S)cc1 | < 4.00
* COc1ccc(N2C(=O)C(C)(C)N(Cc3ccc(Br)c(C)c3)C2=S)cc1 | < 4.00
* COc1ccc(N2C(=O)/C(=C/c3ccccc3C(F)(F)F)SC2=S)cc1 | 5.28

Request the reported pIC50 associated with CC1(C)C(=O)N(c2ccc(Oc3ccccc3)cc2)C(=S)N1Cc1ccc(S(N)(=O)=O)c(F)c1 < 4.00
